System: NCI-H520
assay.details: relative viability (nuclei count vs DMSO), 5 days (fraction); higher = more cells survive
cond: first compound 0.01581 µM
observed.property: relative viability

1) CC1(C)CCC(c2ccc(Cl)cc2)=C(CN2CCN(c3ccc(C(=O)NS(=O)(=O)c4ccc(N[C@H](CCN5CCOCC5)CSc5ccccc5)c(S(=O)(=O)C(F)(F)F)c4)cc3)CC2)C1 [Navitoclax] + Cc1nc(Nc2ncc(C(=O)Nc3c(C)cccc3Cl)s2)cc(N2CCN(CCO)CC2)n1 [Dasatinib] (partner 0.075 µM) | 0.205
2) CC1(C)CCC(c2ccc(Cl)cc2)=C(CN2CCN(c3ccc(C(=O)NS(=O)(=O)c4ccc(N[C@H](CCN5CCOCC5)CSc5ccccc5)c(S(=O)(=O)C(F)(F)F)c4)cc3)CC2)C1 [Navitoclax] + CC(=O)c1c(C)c2cnc(Nc3ccc(N4CCNCC4)cn3)nc2n(C2CCCC2)c1=O [Palbociclib] (partner 0.5 µM) | 0.25
3) CC1(C)CCC(c2ccc(Cl)cc2)=C(CN2CCN(c3ccc(C(=O)NS(=O)(=O)c4ccc(N[C@H](CCN5CCOCC5)CSc5ccccc5)c(S(=O)(=O)C(F)(F)F)c4)cc3)CC2)C1 [Navitoclax] + C[C@@H](Oc1cc(-c2cnn(C3CCNCC3)c2)cnc1N)c1c(Cl)ccc(F)c1Cl [Crizotinib] (partner 1 µM) | 0.715
4) CC1(C)CCC(c2ccc(Cl)cc2)=C(CN2CCN(c3ccc(C(=O)NS(=O)(=O)c4ccc(N[C@H](CCN5CCOCC5)CSc5ccccc5)c(S(=O)(=O)C(F)(F)F)c4)cc3)CC2)C1 [Navitoclax] + O=C(c1cc(Cc2n[nH]c(=O)c3ccccc23)ccc1F)N1CCN(C(=O)C2CC2)CC1 [Olaparib] (partner 8 µM) | 0.299
5) CC1(C)CCC(c2ccc(Cl)cc2)=C(CN2CCN(c3ccc(C(=O)NS(=O)(=O)c4ccc(N[C@H](CCN5CCOCC5)CSc5ccccc5)c(S(=O)(=O)C(F)(F)F)c4)cc3)CC2)C1 [Navitoclax] + Cc1nc(NC(=O)N2CCC[C@H]2C(N)=O)sc1-c1ccnc(C(C)(C)C(F)(F)F)c1 [Alpelisib] (partner 2 µM) | 0.892

* * *

The following compounds are shown together with reported relative viability values.
Test system: NCI-H1355
assay.details: relative viability (nuclei count vs DMSO), 5 days (fraction); higher = more cells survive
cond: first compound 0.3162 µM
observed.property: relative viability

1) NC(=O)Nc1cc(-c2cccc(F)c2)sc1C(=O)N[C@H]1CCCNC1 [AZD7762] + CC(=O)Nc1cccc(-n2c(=O)n(C3CC3)c(=O)c3c(Nc4ccc(I)cc4F)n(C)c(=O)c(C)c32)c1 [Trametinib] (partner 0.02 µM) | 0.441
2) NC(=O)Nc1cc(-c2cccc(F)c2)sc1C(=O)N[C@H]1CCCNC1 [AZD7762] + CS(=O)(=O)N1CCN(Cc2cc3nc(-c4cccc5[nH]ncc45)nc(N4CCOCC4)c3s2)CC1 [Pictilisib] (partner 1 µM) | 0.445
3) NC(=O)Nc1cc(-c2cccc(F)c2)sc1C(=O)N[C@H]1CCCNC1 [AZD7762] + Cc1nc(Nc2ncc(C(=O)Nc3c(C)cccc3Cl)s2)cc(N2CCN(CCO)CC2)n1 [Dasatinib] (partner 0.075 µM) | 0.681
4) NC(=O)Nc1cc(-c2cccc(F)c2)sc1C(=O)N[C@H]1CCCNC1 [AZD7762] + COc1cc2c(Oc3ccc(NC(=O)C4(C(=O)Nc5ccc(F)cc5)CC4)cc3F)ccnc2cc1OCCCN1CCOCC1 [Foretinib] (partner 0.25 µM) | 1.02

Values were extracted from the supplement of paper PMC10307832.
